From: patent EP0984975B1

- Test system: STREPTOCOCCUS PYOGENES EES61
- assay_overview: In vitro assay of antibacterial activity (agar dilution MIC)
- Assay type: cell-based
- condition_label: STREPTOCOCCUS PYOGENES EES61; BHI agar, 35-37 °C for 20 to 24 hours; unit assumed

# mol_smiles, Antibacterial Activity (MIC's)
records = [
    ("CC[C@H]1OC(=O)[C@H](C)C(=O)[C@H](C)[C@@H](O[C@@H]2O[C@H](C)C[C@H](N(C)C)[C@H]2O)[C@](C)(OC)C[C@@H](C)C2=Nc3cc(C)ccc3N3C(=O)O[C@@]1(C)[C@H]3[C@H]2C", "0.01 µg/mL"),
    ("CC[C@H]1OC(=O)[C@H](C)C(=O)[C@H](C)[C@@H](O[C@@H]2O[C@H](C)C[C@H](N(C)C)[C@H]2O)[C@](C)(OC)C[C@@H](C)C2=Nc3cccnc3N3C(=O)O[C@@]1(C)[C@H]3[C@H]2C", "0.05 µg/mL"),
]
